- tested.target: T1, human CCR8 (human, UniProt P51685 1-355)
- T1 construct: Native CCR8 on human PBMC (CCR8+ CD3+ or CCR8+ CD4+ lymphocytes); also called chemokine (C-C motif) receptor 8
- T1 sequence (P51685 whole entry): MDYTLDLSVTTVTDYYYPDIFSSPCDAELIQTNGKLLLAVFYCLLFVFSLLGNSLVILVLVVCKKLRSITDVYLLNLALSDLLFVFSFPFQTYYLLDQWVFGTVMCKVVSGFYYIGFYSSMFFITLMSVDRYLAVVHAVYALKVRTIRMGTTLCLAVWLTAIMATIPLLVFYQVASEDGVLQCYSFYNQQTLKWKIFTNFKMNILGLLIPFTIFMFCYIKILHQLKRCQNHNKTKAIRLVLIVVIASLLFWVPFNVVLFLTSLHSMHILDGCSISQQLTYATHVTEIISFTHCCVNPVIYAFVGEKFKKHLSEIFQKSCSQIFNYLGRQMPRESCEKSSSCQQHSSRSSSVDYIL
- assay.remarks: flow blocking, PBMC CCR8+CD4+; competitor PE-433H
reported.metric: % Positive cells (%)
Give just the numeric value; % need not be written.

binder	% Positive cells, %
AB12 (antibody, V domains shown, Hybridoma monoclonal; also called antibody 12; clone 12) VH: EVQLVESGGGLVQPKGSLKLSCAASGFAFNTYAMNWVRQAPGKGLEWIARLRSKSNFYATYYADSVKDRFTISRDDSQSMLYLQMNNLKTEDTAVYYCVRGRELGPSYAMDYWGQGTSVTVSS VL: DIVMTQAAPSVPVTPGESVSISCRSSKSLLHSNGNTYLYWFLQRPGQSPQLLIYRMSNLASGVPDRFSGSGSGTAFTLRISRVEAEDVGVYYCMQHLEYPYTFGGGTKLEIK	0.7

[ask] For the binder AB2 (antibody, V domains shown, Hybridoma monoclonal; Same VH/VL entries as AB1; also called antibody 2; clone 2) VH: QVQLKESGPGLVKPSETLSLTCTVSGFSLTSYHISWVRQPPGKGLEWMGVIWGDGSKTYNSALKSRLSISRDTSKSQVFLKMRSLKTEDTATYYCARGGDSGFAYWGQGTLVTVSS VL: DIQMTQSPASLSASLEEIVTITCQASQDIGNWLSWYQQKPGKSPQLLIYGTTNLADGVPSRFSGSRSGTQYSLKISRLQVEDIGIYYCLQAYSVPLTFGSGTKLEIK , what % Positive cells is on record?
[reply] 1.71

[ask] Recorded % Positive cells for AB8 (antibody, V domains shown, Hybridoma monoclonal; also called antibody 8; clone 8) VH: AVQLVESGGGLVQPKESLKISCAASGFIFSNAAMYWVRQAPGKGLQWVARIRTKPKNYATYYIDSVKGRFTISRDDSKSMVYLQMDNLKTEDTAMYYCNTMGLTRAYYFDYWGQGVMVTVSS VL: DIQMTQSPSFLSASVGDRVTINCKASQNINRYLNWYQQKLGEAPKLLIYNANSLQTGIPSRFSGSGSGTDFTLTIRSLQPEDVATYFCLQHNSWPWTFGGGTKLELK , please?
[reply] 0.13
